Can you tell me combination Emax for the items I'm about to list?
Tested on: Mo-T (Other Blood Carcinomas)
Experiment: combination Emax (second highest fraction inhibited in the dose matrix, 72 h); higher = more inhibition; extreme values may be limits of the assay
Numbers only.

Please review the entries below; each comes with its answer.
INSERT INTO results (molecule, value_type, assay_result) VALUES
  ('C[C@@H](c1ccc2nccn2c1)n1nnc2ncc(-c3cnn(C)c3)nc21 [Savolitinib] + Cc1c2c(nn1C)CSCc1cc(n(C)n1)CSc1cc(c3ccccc3c1)OCCCc1c(C(=O)O)n(C)c3c-2c(Cl)ccc13 [AZD5991] (first compound max 1 µM, 7x7, partner max 1 µM)', 'combination Emax', 0.129),
  ('CN(CCO)CC[C@H](CSc1ccccc1)Nc1ccc(S(=O)(=O)NC(=O)c2ccc(N3CCC([C@@H](O)c4ccccc4-c4ccc(Cl)cc4)CC3)cc2)cc1S(=O)(=O)C(F)(F)F [AZD4320] + C1CN(CCC1(C(=O)N[C@@H](CCO)C2=CC=C(C=C2)Cl)N)C3=NC=NC4=C3C=CN4 [Capivasertib] (first compound max 1 µM, 7x7, partner max 3 µM)', 'combination Emax', 0.697);

Pending molecule:
Problem: Given the entry Cc1c2c(nn1C)CSCc1cc(n(C)n1)CSc1cc(c3ccccc3c1)OCCCc1c(C(=O)O)n(C)c3c-2c(Cl)ccc13 [AZD5991] + Nc1ccn([C@@H]2O[C@H](CO)[C@@H](O)C2(F)F)c(=O)n1 [Gemcitabine] (first compound max 1 µM, 7x7, partner max 0.3 µM) , report its measured combination Emax.
Result: 0.685

###

Can you tell me combination Emax for the items I'm about to list?
Test system: Ca-Ski (Cervical Carcinoma)
Assay: combination Emax (second highest fraction inhibited in the dose matrix, 72 h); higher = more inhibition; extreme values may be limits of the assay

Please review the entries below; each comes with its answer.
INSERT INTO assay_data (molecule, assay_result) VALUES
  ('CN(C)CCCOc1ccc(-c2ccc3ncc4c(c3c2)n(C2CCOCC2)c(=O)n4C)cn1 [AZD0156] + C=CCn1c(=O)c2cnc(Nc3ccc(N4CCN(C)CC4)cc3)nc2n1-c1cccc(C(C)(C)O)n1 [AZD1775] (first compound max 1 µM, partner max 1 µM)', 0.7),
  ('Cc1c2c(nn1C)CSCc1cc(n(C)n1)CSc1cc(c3ccccc3c1)OCCCc1c(C(=O)O)n(C)c3c-2c(Cl)ccc13 [AZD5991] + CN(C)CCCOc1ccc(-c2ccc3ncc4c(c3c2)n(C2CCOCC2)c(=O)n4C)cn1 [AZD0156] (first compound max 1 µM, 7x7, partner max 1 µM)', 0.303),
  ('Cc1c2c(nn1C)CSCc1cc(n(C)n1)CSc1cc(c3ccccc3c1)OCCCc1c(C(=O)O)n(C)c3c-2c(Cl)ccc13 [AZD5991] + C=CCn1c(=O)c2cnc(Nc3ccc(N4CCN(C)CC4)cc3)nc2n1-c1cccc(C(C)(C)O)n1 [AZD1775] (first compound max 1 µM, partner max 1 µM)', 0.816);

Pending molecule:
Problem: Given the entry COc1cccc(OCCCN)c1-c1cc(Nc2cnc(C#N)cn2)n[nH]1 [Prexasertib] + CCc1c2c(nc3ccc(O)cc13)-c1cc3c(c(=O)n1C2)COC(=O)[C@]3(O)CC [SN-38] (first compound max 1 µM, 7x7, partner max 0.3 µM) , report its measured combination Emax.
Result: 0.983
